assay: Pharmacokinetic study in rats: CP and DECP with and without KTZ, KTZ alone; type: in vivo; details: rat, plasma, iv, 10 mg/kg, AUC0→∞, Group 1 (0 mg/kg KTZ); CP 10 mg/kg i.v., rats
readout-label: AUC(0-inf) (ng·h/mL)
Field format: number, assumed ng·h/mL, no unit text.

Enquiry: Give a short answer stating reported AUC(0-inf) for O=P1(N(CCCl)CCCl)NCCCO1 (stereo not shown) [CP, Cyclophosphamide] .
Return: 15500

---

biological target: UniProt P08684; assay: KTZ inhibition of CP conversion to DECP in HLM; conditions: human liver microsomes, probe CP (cyclophosphamide)
Sequence (P08684 whole entry): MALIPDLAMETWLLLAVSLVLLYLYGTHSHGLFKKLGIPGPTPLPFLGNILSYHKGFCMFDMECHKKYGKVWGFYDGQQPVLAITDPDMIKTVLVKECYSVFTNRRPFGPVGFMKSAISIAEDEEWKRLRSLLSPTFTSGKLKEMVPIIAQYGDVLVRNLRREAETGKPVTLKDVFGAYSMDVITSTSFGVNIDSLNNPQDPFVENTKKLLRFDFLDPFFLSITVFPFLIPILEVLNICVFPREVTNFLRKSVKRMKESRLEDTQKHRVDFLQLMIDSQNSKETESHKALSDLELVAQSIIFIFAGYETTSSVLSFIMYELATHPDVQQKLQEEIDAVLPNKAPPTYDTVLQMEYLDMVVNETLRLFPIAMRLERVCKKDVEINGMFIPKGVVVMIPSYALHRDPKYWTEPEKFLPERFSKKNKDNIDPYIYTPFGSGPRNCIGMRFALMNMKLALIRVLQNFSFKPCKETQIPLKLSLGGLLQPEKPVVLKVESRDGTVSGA
readout-label: pIC50
# reply with the number alone; pIC50 is -log10 of concentration in mol/L

Enquiry: Give a short answer stating reported pIC50 for CC(=O)N1CCN(c2ccc(OCC3COC(Cn4ccnc4)(c4ccc(Cl)cc4Cl)O3)cc2)CC1 (stereo not shown) [KTZ, ketoconazole] .
Return: 6.21
